Experiment: chemical genetic growth profiling, strain panel (AID 1159580);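 note: tested at 20 µM; growth read once vehicle control cultures reached saturation at 30 °C; 1 = growth at the plate median or of vehicle wells; lower values mean less growth of the strain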
Conditions: S. cerevisiae deletion strains, growth OD, locus YAL040C, strain CLN3
The whole screen tested about 5,500 compounds, of which about 2,000 (36%) were called active. About 18% were inconclusive and are not listed. Cut-off read from the data, not from the text of the source: active = normalized growth mostly below about 0.91 (no sharp cut-off); inconclusive = no clear call, values can overlap the other calls; inactive = mostly above about 0.92. Some of the results follow.
Please answer using one outcome listed in class 1 for active, class 0 for inactive

>>> qualitative_label("Cn1c(=O)c2[nH]c(-c3ccc(S(=O)(=O)O)cc3)nc2n(C)c1=O")
"class 0"
>>> qualitative_label("COC(=O)C(N)Cc1ccc(Cl)cc1 (stereo not given)")
"class 0"
>>> qualitative_label("O=C(O)CN(CCN(CC(=O)O)CC(=O)O)CCN(CC(=O)O)CC(=O)O")
"class 0"

GET /call?item= CN(C)C(=O)C(CCN1CCC(O)(c2ccc(Cl)cc2)CC1)(c1ccccc1)c1ccccc1 returns the recorded outcome of this test.
class 0

GET /call?item= Cc1cc(N)c2ccccc2[n+]1CCCCCCCCCC[n+]1c(C)cc(N)c2ccccc21 returns the recorded outcome of this test.
class 1

GET /call?item= CC(=O)NC(CS)C(=O)O (stereo not given) returns the recorded outcome of this test.
class 0

GET /call?item= CC(=O)O[C@]1(C(C)=O)CC[C@H]2[C@@H]3C=C(Cl)C4=CC(=O)[C@@H]5C[C@@H]5[C@]4(C)[C@H]3CC[C@@]21C returns the recorded outcome of this test.
class 0

GET /call?item= CCC1(O)C(=O)OCc2c1cc1n(c2=O)Cc2cc3ccccc3nc2-1 (stereo not given) returns the recorded outcome of this test.
class 0

GET /call?item= N[C@H](CCC(=O)NCS(=O)(=O)O)C(=O)O returns the recorded outcome of this test.
class 0

GET /call?item= O=C1NCN(c2ccccc2)C12CCN(CCCC(c1ccc(F)cc1)c1ccc(F)cc1)CC2 returns the recorded outcome of this test.
class 0
